Target: Tyrosine-protein phosphatase non-receptor type 11 (Homo sapiens, UniProt Q06124)
Sequence (Q06124 whole entry, the tested form may be a part): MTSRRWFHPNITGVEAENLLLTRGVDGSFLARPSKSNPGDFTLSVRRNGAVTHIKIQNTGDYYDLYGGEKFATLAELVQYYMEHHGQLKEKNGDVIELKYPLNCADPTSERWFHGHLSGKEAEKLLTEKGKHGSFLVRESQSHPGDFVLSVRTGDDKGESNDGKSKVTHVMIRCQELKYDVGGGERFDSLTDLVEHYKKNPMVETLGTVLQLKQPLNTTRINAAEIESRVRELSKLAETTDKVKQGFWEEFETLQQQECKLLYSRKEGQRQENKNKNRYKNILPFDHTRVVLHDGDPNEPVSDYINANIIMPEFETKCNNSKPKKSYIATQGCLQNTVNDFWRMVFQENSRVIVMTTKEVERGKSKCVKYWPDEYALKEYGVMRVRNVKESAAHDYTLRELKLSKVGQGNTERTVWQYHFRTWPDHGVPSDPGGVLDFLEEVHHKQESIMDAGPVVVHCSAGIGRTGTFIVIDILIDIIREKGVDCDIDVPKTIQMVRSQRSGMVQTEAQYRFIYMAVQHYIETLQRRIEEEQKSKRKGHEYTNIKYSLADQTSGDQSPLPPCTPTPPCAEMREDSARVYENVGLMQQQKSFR
Assay: Inhibition of human recombinant GST-fused SHP2 using p-nitrophenyl phosphate as substrate
pKi: −log10 of the molar value.
measurement type: pKi

# chemical string, measurement type, reported result
measured = [
    ("COc1ccc(/C=C2/S/C(=N\\c3nsc4ccccc34)NC2=O)cc1", "pKi", 4.64),
    ("COc1cc(/C=C2/S/C(=N/c3nc(C45CC6CC(CC(C6)C4)C5)cs3)NC2=O)ccc1O", "pKi", 4.91),
    ("COc1ccc(/C=C2/S/C(=N/c3nccs3)NC2=O)cc1", "pKi", 4.93),
    ("COc1cc(/C=C2/S/C(=N/c3nc4ccccc4s3)NC2=O)cc(OC)c1O", "pKi", 4.74),
    ("COc1cc(/C=C2/S/C(=N/c3nc4ccc([N+](=O)[O-])cc4s3)NC2=O)cc(OC)c1O", "pKi", 4.89),
    ("O=C1N/C(=N\\c2nc3ccccc3s2)S/C1=C/c1cccc([N+](=O)[O-])c1", "pKi", 4.54),
    ("O=C1N/C(=N\\c2nccs2)S/C1=C/c1cccc(Cl)c1", "pKi", 2.96),
    ("COc1cc(/C=C2/S/C(=N\\c3nsc4ccccc34)NC2=O)ccc1O", "pKi", 4.04),
    ("O=C1N/C(=N\\c2nccs2)S/C1=C/c1ccc([N+](=O)[O-])cc1", "pKi", 3.32),
    ("COc1cc(/C=C2/S/C(=N/c3nc(-c4ccccc4)cs3)NC2=O)ccc1O", "pKi", 3.99),
]
